Test system: AncSZ
method-notes: phosphorylation enrichment, bacterial display (enrichment ratio); higher = better substrate or ligand; peptides without Tyr show the background
The following sequences are listed with their measured phosphorylation enrichment values.
Write the value as a bare number.

Consider the following illustrative entries.
[
  {
    "sequence-data": "IITDFYVDMKF [MPP4_Y567_V562I_YF]",
    "phosphorylation enrichment": 1.31
  },
  {
    "sequence-data": "DPLLTYRFPPN [LMNA_Y481_K486N]",
    "phosphorylation enrichment": 0.882
  }
]

Enquiry: Query (sequence): GKPENYRRLDI [VHL_Y175_V170G] ; field requested: phosphorylation enrichment
Return: 0.452

Enquiry: Item PRIKTYMRPSP [TDP1_Y497_H493R] has what recorded phosphorylation enrichment?
Return: 0.493

Enquiry: Data request, read-out phosphorylation enrichment, for KSELAYEIFDK [MYOM2_Y1024]
Return: 2

====

target-desc: Hck (UniProt P08631)
Sequence (P08631 whole entry, looked up): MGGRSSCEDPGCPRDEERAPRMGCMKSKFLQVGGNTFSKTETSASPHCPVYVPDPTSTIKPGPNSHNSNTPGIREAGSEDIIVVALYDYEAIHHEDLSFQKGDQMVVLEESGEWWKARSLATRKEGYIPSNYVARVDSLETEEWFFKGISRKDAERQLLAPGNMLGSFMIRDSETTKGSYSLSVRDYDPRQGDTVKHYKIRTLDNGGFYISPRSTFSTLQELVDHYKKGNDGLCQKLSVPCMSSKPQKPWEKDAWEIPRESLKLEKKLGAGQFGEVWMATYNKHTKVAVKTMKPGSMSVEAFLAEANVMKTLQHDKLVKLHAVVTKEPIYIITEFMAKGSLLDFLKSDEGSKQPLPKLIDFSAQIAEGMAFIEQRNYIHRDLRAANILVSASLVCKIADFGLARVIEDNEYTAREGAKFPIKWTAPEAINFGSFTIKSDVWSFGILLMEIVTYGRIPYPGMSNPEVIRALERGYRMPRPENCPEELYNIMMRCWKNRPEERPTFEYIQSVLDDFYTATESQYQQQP
method-notes: phosphorylation enrichment, bacterial display (enrichment ratio); higher = better substrate or ligand; peptides without Tyr show the background
quantity: phosphorylation enrichment
Note: the reply should be a number with no unit written.

Recorded results for 2 sequences are shown here.
[
  {
    "sequence-data": "TWQSMYGCDVG [HLA-B_Y123_L119W]",
    "phosphorylation enrichment": 0.498
  },
  {
    "sequence-data": "LKMLVYMDMSK [LRRC7_Y234_L235M]",
    "phosphorylation enrichment": 0.802
  }
]

In the following, a different sequence is considered.
Enquiry: Param readout= phosphorylation enrichment; system= Hck (UniProt P08631); entry= APRKVYDTRDD [ZFPL1_Y215] ; returns value.
Return: 0.493

====

SH2 binding enrichment values for the sequences below.
target-desc: c-Src SH2;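 note: peptide library displayed on the E. coli surface as eCPX fusions, selected cells deep-sequenced, score is each peptide's frequency after selection divided by its frequency in the input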
method-notes: SH2 binding enrichment of the phosphorylated peptide, bacterial display (enrichment ratio); higher = better substrate or ligand; peptides without Tyr show the background
Note: the reply should be a number with no unit written.

Illustrative cases are given below, each with its answer.
[
  {
    "sequence-data": "HGEAYYSEVKP [PAK5_Y182]",
    "quantity": "SH2 binding enrichment",
    "numeric-result": 2.44
  },
  {
    "sequence-data": "KPRKLYTIKKP [BRD2_Y715_P714L]",
    "quantity": "SH2 binding enrichment",
    "numeric-result": 0.972
  }
]

Enquiry: I'd like to know its SH2 binding enrichment. The sequence in question is MGSYNYLGFPR [SPTLC2_Y178_A182P]
Return: 2.84

Enquiry: Recorded SH2 binding enrichment of PVADPYDQSFE [MAPK14_Y323] , please.
Return: 0.971

Enquiry: # lookup: SH2 binding enrichment of LQKPMYEVQWK [KIT_Y553]
Return: 0.522

Enquiry: Entry under review: TGDFGYRAPGF [TNS2_Y668_YF] . Reported SH2 binding enrichment?
Return: 0.463

Enquiry: Quick one: SH2 binding enrichment for PATINYPFEKG [NDUFS8_Y84] ?
Return: 0.663

Enquiry: # query: SH2 binding enrichment of entry NGLVAYKDGKL [PMM2_Y76]
Return: 0.436

====

target-desc: Fes (UniProt P07332)
Sequence (P07332 whole entry, looked up): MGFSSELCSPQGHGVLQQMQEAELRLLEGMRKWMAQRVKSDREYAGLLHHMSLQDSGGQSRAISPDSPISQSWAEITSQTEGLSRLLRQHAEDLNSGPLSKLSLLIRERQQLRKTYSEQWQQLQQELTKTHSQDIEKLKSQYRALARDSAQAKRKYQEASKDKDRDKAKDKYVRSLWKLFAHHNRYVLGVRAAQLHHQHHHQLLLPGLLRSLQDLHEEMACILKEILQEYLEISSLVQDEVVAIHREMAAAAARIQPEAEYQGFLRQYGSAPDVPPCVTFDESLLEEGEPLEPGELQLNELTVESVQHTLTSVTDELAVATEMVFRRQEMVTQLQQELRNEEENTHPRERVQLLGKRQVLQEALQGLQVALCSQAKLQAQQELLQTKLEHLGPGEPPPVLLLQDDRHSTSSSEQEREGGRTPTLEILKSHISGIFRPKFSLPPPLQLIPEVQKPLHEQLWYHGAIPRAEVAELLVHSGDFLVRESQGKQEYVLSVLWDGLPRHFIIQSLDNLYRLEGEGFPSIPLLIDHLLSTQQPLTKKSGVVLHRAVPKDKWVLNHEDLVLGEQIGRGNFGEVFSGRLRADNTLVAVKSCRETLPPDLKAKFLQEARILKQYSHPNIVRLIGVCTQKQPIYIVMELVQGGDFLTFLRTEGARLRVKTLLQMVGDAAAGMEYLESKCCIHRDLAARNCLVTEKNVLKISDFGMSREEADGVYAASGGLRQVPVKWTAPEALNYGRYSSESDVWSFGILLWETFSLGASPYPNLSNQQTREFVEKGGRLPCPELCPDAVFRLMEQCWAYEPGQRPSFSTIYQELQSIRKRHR
method-notes: phosphorylation enrichment, bacterial display (enrichment ratio); higher = better substrate or ligand; peptides without Tyr show the background
Below, each entry is listed with its recorded phosphorylation enrichment.
Response field accepts a number only; no unit should be typed.

[
  {
    "sequence-data": "KIVQDYLEKFY [MMP8_Y36_T32I]",
    "target-desc": "Fes (UniProt P07332)",
    "phosphorylation enrichment": 0.975
  },
  {
    "sequence-data": "KASGKYFAMKI [AKT3_Y173_YF]",
    "target-desc": "Fes (UniProt P07332)",
    "phosphorylation enrichment": 0.626
  },
  {
    "sequence-data": "QDTSRYTVSNL [BIRC3_Y245]",
    "target-desc": "Fes (UniProt P07332)",
    "phosphorylation enrichment": 0.824
  },
  {
    "sequence-data": "QLRPGYFPIPV [BAG3_Y93_I94F]",
    "target-desc": "Fes (UniProt P07332)",
    "phosphorylation enrichment": 0.679
  },
  {
    "sequence-data": "PSRKDYETYQS [CTNND2_Y1154_P1159S]",
    "target-desc": "Fes (UniProt P07332)",
    "phosphorylation enrichment": 1.17
  }
]

Enquiry: Would you mind telling me what phosphorylation enrichment value was observed for DLEKTYNTYRS [B4GALNT2_Y538_A533D] ?
Return: 0.788

Enquiry: Please give the measured phosphorylation enrichment for this sequence: SVTCMYSPALN [TP53_Y126_T125M]
Return: 1.47
